# Measured target: human insulin-like growth factor-I (IGF-I) (human, UniProt P05019 49-118)
# Experimental protocol: cell-based or functional assay
Reported property: Max % Inhibition (333.3 nM), n = 2, IGF-I pTYR, BxPC3 cells (%)
One number for each entry, in %.

Some solved entries appear below for comparison.
// query Any idea what Max % Inhibition (333.3 nM), n = 2, IGF-I pTYR, BxPC3 cells was measured for mAb 7.159.2 (antibody, V domains shown, Fully human XenoMouse hybridoma mAb, lambda light chain (V1-19/JL2); Sister clones 7.159.1 and 7.159.2 are said to be identical; also called 7.159.1; 7_159_1) VH: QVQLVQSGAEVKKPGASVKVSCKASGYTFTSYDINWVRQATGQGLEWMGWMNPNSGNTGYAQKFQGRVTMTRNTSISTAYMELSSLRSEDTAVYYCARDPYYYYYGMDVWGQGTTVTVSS VL: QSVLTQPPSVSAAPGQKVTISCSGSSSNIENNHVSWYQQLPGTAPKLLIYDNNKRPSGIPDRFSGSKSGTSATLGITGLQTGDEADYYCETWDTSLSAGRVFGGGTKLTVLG ?
// result 100

// query Now consider mAb 7.158.2 (antibody, V domains shown, Kappa light chain (L5/JK3); also called 7.158.1; 7_158_1) VH: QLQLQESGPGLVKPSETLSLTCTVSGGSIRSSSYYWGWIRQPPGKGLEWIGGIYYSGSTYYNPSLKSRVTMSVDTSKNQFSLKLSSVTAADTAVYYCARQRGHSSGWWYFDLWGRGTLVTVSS VL: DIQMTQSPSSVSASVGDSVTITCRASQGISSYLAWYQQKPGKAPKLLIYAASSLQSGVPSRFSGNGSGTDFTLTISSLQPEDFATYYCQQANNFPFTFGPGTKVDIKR .
// result 89.4

// query Now consider mAb 7.34.1 (antibody, V domains shown, Fully human XenoMouse hybridoma mAb, lambda light chain (V1-13/JL2); also called ATCC PTA-7423) VH: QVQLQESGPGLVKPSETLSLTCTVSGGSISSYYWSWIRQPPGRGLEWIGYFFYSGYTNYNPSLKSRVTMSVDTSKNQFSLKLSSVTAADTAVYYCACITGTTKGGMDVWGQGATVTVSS VL: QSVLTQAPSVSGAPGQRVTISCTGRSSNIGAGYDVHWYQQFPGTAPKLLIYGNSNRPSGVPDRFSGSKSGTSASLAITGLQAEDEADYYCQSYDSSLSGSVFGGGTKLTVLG .
// result 98.5

Next:
// query Any idea what Max % Inhibition (333.3 nM), n = 2, IGF-I pTYR, BxPC3 cells was measured for mAb 7.234.2 (antibody, V domains shown, Kappa light chain (L5/JK3); also called 7.234.1; 7_234_1) VH: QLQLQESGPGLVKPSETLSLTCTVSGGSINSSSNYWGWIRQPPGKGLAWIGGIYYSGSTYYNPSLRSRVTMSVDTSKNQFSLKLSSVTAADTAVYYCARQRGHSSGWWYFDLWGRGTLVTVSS VL: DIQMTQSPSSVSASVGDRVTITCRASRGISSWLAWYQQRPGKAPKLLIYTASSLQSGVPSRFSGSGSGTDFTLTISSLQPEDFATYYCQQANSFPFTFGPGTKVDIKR ?
// result 91.5

Recorded values, source patent US20070196376A1.
